assayed target: peripheral benzodiazepine receptors (Rattus norvegicus)
Construct: from tissue; Rat heart membranes according to own knowledge of the cited Le Fur et al. method
assay protocol: benzodiazepine receptor binding (test of LeFur et al.), peripheral
assay context: Table 2
experimental readout: IC50

Task item: Please report IC50 for the following compound: Cc1ccc(-c2nc3ccc(C)cn3c2C2CCN(C)C2=O)cc1 (stereo not shown)
Reply: > 10000 nM

###

assayed target: peripheral benzodiazepine receptors (Rattus norvegicus)
Construct: from tissue; Rat heart membranes according to own knowledge of the cited Le Fur et al. method
assay protocol: benzodiazepine receptor binding (test of LeFur et al.), peripheral
assay context: Table 1a
Would you mind telling me the reported IC50 of each entry?
One number for each entry, in nM.

[
  {
    "molecular string": "Cc1ccc(-c2nc3ccc(C)cn3c2CC(=O)c2c(C)nc3ccccn23)cc1",
    "observed value": 1600
  }
]

Please examine the following record next.
Task item: Look up and report IC50, with peripheral benzodiazepine receptors (Rattus norvegicus) as system, for Cc1ccc(-c2nc3ccc(C)cn3c2CC(=O)c2cc3ccccc3n2C)cc1
Reply: 540

###

Give measured IC50 for each item. Keep answers brief.
assayed target: peripheral benzodiazepine receptors (Rattus norvegicus, UniProt P16257)
Construct: from tissue; Rat heart membranes according to own knowledge of the cited Le Fur et al. method
Sequence (P16257 whole entry): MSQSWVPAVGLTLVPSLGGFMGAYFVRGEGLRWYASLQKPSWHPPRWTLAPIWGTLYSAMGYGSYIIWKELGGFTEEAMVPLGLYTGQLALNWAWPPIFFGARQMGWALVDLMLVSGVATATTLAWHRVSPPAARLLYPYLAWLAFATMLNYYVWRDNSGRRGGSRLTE
assay protocol: benzodiazepine receptor binding (test of LeFur et al.), peripheral
assay context: Table 1a

[
  {
    "molecular string": "Cc1ccc(-c2nc3ccc(C)cn3c2CC(=O)c2cnn3c(C)cc(C)nc23)cc1",
    "assayed target": "peripheral benzodiazepine receptors (Rattus norvegicus, UniProt P16257)",
    "IC50": "> 10000 nM"
  },
  {
    "molecular string": "Cc1ccc(-c2nc3ccc(C)cn3c2CC(=O)c2cccn2C)cc1",
    "assayed target": "peripheral benzodiazepine receptors (Rattus norvegicus, UniProt P16257)",
    "IC50": "> 10000 nM"
  }
]

Okay, next one:
Task item: Item Cc1ccc(-c2nc3ccc(C)cn3c2CC(=O)c2cc(C)n[nH]2)cc1 : provide IC50
Reply: > 10000 nM
